B1: tRNA (parent)
chain: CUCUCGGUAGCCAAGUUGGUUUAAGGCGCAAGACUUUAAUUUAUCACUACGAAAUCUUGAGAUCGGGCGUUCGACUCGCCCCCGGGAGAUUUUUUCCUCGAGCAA

Variants of: B1
assay text: nonsense suppression (GFP-seq) (ratio to wild type); higher = more function; SUP4oc tRNA, yeast GFP reporter sort-seq
This sample holds only a part of the variants without activity.
outcome measure: nonsense suppression
The response must contain the number and no unit.

For the variant shown here, U17A A33G , give the reported nonsense suppression.
0.104

For the variant shown here, C29U C72U , give the reported nonsense suppression.
0.101

For the variant shown here, C1A A30G G85A , give the reported nonsense suppression.
0.0742

For the variant shown here, U20C C77U , give the reported nonsense suppression.
0.0349

For the variant shown here, A87G , give the reported nonsense suppression.
1.16

For the variant shown here, A13U G85A , give the reported nonsense suppression.
1.2

For the variant shown here, U4A A60U , give the reported nonsense suppression.
0.52

For the variant shown here, U57C A60U , give the reported nonsense suppression.
0.0266

For the variant shown here, A9G U22A , give the reported nonsense suppression.
0.212

For the variant shown here, A9C A13C , give the reported nonsense suppression.
1.15

For the variant shown here, U4C A9U , give the reported nonsense suppression.
1.07

For the variant shown here, G28A G67A , give the reported nonsense suppression.
0.209

For the variant shown here, G6A G28C , give the reported nonsense suppression.
0.0666

For the variant shown here, G61A G78U , give the reported nonsense suppression.
0.0402

For the variant shown here, G61C G85C , give the reported nonsense suppression.
0.045

For the variant shown here, U17C G28C C75G , give the reported nonsense suppression.
1.02

For the variant shown here, U17G G19U , give the reported nonsense suppression.
1.05

For the variant shown here, A31G C75U , give the reported nonsense suppression.
1.05

For the variant shown here, U22G C29U , give the reported nonsense suppression.
1.15

For the variant shown here, U4A A14U , give the reported nonsense suppression.
0.0276

For the variant shown here, U58C G73A , give the reported nonsense suppression.
0.0472

For the variant shown here, C12U A30G , give the reported nonsense suppression.
0.363

For the variant shown here, U4G C12G , give the reported nonsense suppression.
0.0311

For the variant shown here, A9U A30G , give the reported nonsense suppression.
0.0995

For the variant shown here, U17A U21A , give the reported nonsense suppression.
0.966
